meta.source: patent US20140274782A1

Measured On: T1, G9a and GLP (Homo sapiens, UniProt Q96KQ7+Q9H9B1)
T1 sequence (Q96KQ7 2-1210 limits assumed): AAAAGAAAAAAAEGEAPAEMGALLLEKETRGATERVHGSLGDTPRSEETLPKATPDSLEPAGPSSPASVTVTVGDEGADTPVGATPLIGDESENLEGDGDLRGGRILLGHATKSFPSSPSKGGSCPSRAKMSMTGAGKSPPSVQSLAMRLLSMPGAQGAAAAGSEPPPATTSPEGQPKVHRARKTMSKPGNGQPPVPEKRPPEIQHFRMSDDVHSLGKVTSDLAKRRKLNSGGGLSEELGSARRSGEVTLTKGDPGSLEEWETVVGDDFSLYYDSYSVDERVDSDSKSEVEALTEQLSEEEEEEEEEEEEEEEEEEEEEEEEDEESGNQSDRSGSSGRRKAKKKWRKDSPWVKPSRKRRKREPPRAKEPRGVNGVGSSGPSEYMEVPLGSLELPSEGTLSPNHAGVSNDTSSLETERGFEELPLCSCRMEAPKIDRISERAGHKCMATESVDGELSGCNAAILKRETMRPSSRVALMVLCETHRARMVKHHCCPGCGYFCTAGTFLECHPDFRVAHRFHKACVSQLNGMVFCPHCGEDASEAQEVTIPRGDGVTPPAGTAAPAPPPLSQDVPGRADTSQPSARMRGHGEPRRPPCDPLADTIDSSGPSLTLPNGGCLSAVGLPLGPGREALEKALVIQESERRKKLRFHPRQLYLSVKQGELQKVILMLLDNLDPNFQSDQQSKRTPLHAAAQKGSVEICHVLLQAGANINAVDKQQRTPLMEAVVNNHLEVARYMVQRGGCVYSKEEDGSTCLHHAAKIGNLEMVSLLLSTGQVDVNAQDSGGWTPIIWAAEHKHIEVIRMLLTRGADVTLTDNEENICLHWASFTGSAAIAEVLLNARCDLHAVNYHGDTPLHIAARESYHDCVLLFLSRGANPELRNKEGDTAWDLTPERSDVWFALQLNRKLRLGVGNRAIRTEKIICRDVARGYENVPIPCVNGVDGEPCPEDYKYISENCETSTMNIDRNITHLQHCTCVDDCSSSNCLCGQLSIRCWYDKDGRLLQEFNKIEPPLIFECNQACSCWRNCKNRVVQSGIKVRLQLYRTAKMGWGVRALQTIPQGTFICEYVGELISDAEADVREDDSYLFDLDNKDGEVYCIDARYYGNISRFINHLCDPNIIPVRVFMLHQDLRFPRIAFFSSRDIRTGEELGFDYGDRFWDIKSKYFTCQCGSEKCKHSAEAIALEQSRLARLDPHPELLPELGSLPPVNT
T1 sequence (Q9H9B1 2-1298 limits assumed): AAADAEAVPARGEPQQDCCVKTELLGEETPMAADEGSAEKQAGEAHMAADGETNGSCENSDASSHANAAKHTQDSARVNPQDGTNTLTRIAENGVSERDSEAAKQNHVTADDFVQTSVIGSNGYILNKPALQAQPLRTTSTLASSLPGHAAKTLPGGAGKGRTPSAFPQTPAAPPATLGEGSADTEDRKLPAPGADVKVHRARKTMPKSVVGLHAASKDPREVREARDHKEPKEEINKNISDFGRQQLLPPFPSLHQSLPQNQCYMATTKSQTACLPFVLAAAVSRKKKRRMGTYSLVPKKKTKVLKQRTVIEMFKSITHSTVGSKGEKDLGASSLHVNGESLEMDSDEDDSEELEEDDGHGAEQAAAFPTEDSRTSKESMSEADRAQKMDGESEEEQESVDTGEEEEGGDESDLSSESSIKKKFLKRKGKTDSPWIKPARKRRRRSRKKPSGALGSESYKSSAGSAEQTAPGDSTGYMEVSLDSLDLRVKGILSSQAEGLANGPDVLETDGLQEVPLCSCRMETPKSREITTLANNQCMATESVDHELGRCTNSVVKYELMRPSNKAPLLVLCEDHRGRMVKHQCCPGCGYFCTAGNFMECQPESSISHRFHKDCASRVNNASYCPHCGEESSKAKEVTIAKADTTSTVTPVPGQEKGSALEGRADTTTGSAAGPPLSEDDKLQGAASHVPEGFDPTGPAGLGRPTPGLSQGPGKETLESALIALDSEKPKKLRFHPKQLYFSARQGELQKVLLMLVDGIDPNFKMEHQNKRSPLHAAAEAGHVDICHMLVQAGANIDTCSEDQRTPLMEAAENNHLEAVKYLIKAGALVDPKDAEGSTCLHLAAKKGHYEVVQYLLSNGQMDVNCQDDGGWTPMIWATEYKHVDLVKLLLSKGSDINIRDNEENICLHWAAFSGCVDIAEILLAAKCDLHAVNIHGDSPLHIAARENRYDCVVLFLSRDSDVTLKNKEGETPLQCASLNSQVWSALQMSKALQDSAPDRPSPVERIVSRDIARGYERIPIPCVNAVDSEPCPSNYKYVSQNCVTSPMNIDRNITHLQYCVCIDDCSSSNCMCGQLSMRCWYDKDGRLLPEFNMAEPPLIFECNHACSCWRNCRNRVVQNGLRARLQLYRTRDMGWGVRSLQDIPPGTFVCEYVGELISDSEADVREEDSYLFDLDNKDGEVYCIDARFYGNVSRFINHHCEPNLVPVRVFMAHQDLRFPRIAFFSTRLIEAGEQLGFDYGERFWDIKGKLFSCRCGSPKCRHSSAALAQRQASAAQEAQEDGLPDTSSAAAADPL
Assay Name: Triple SILAC pull-down after UNC0638 treatment of 293T cells, DMSO/UNC0638 ratio of protein captured by 3×MBT;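 also: mass spectrometry (Q-Exactive) SILAC quantitation, DMSO/UNC0638 ratio computed after subtracting 3×MBTD355N mutant pull-down background, only proteins with at least twofold 3×MBT over mutant signal considered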
Format: cell-based
Design: cells were treated for 24 hours with UNC0638 at 2.5 μM or DMSO vehicle control; endogenous in cells; host or cells: HEK 293T
Details: average of UNC Light and UNC Heavy experiments; all values in log base 2
Recorded Endpoint: Relative to UNC0638 Average (log base 2)
Quick reminder: number only, in log base 2, skip the unit.

// known answers, use as guide
Reported Relative to UNC0638 Average, molecule RPRD1A (protein, UniProt Q96P16 2-312, looked up) Regulation of nuclear …: SAFSEAALEKKLSELSNSQQSVQTLSLWLIHHRKHSRPIVTVWERELRKAKPNRKLTFLYLANDVIQNSKRKGPEFTKDFAPVIVEAFKHVSSETDESCKKHLGRVLSIWEERSVYENDVLEQLKQALYGDKKPRKRTYEQIKVDENENCSSLGSPSEPPQTLDLVRALQDLENAASGDAAVHQRIASLPVEVQEVSLLDKITDKESGERLSKMVEDACMLLADYNGRLAAEIDDRKQLTRMLADFLRCQKEALAEKEHKLEEYKRKLARVSLVRKELRSRIQSLPDLSRLPNVTGSHMHLPFAGDIYSED : ____
0.07

Reported Relative to UNC0638 Average, molecule NOSIP (protein, UniProt Q9Y314 1-301, looked up) Nitric oxide …: MTRHGKNCTAGAVYTYHEKKKDTAASGYGTQNIRLSRDAVKDFDCCCLSLQPCHDPVVTPDGYLYEREAILEYILHQKKEIARQMKAYEKQRGTRREEQKELQRAASQDHVRGFLEKESAIVSRPLNPFTAKALSGTSPDDVQPGPSVGPPSKDKDKVLPSFWIPSLTPEAKATKLEKPSRTVTCPMSGKPLRMSDLTPVHFTPLDSSVDRVGLITRSERYVCAVTRDSLSNATPCAVLRPSGAVVTLECVEKLIRKDMVDPVTGDKLTDRDIIVLQRGGTGFAGSGVKLQAEKSRPVMQA : ____
−0.04

Reported Relative to UNC0638 Average, molecule THYN1 (protein, UniProt Q9P016 1-225, looked up) Thymocyte nuclear protein 1: MSRPRKRLAGTSGSDKGLSGKRTKTENSGEALAKVEDSNPQKTSATKNCLKNLSSHWLMKSEPESRLEKGVDVKFSIEDLKAQPKQTTCWDGVRNYQARNFLRAMKLGEEAFFYHSNCKEPGIAGLMKIVKEAYPDHTQFEKNNPHYDPSSKEDNPKWSMVDVQFVRMMKRFIPLAELKSYHQAHKATGGPLKNMVLFTRQRLSIQPLTQEEFDFVLSLEEKEPS : ____
0.09

Others:
Reported Relative to UNC0638 Average, molecule ZRANB2 (protein, UniProt O95218 1-330, looked up) Zinc finger Ran-binding …: MSTKNFRVSDGDWICPDKKCGNVNFARRTSCNRCGREKTTEAKMMKAGGTEIGKTLAEKSRGLFSANDWQCKTCSNVNWARRSECNMCNTPKYAKLEERTGYGGGFNERENVEYIEREESDGEYDEFGRKKKKYRGKAVGPASILKEVEDKESEGEEEDEDEDLSKYKLDEDEDEDDADLSKYNLDASEEEDSNKKKSNRRSRSKSRSSHSRSSSRSSSPSSSRSRSRSRSRSSSSSQSRSRSSSRERSRSRGSKSRSSSRSHRGSSSPRKRSYSSSSSSPERNRKRSRSRSSSSGDRKKRRTRSRSPERRHRSSSGSSHSGSRSSSKKK : ____
−0.06
